experiment description: protein stability index of a GFP-peptide fusion (GPS, HEK-293T) (PSI 1-6); higher = more stable;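 further: 24-mer peptide tiles fused after GFP, lentivirally expressed, FACS-sorted into six equal bins by GFP/DsRed ratio, decoded by Illumina sequencing, PSI is the read-weighted mean bin number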
experimental conditions: treatment: DMSO; c terminus: a fixed tail appended
Provide the recorded protein stability index for the entries that follow.
Answers are plain numbers.

- sequence entry: "RTELLKDAIGEGKVTLRIRNVRFS [MOG]"
  protein stability index: 2.68
- sequence entry: "FHTMDELVEHYKKAPIFTSEHGEK [NCK2]"
  protein stability index: 3.88
- sequence entry: "KYGGPNHHLPLPDNWKSQVEPETR [CPN1]"
  protein stability index: 4.16

Quick one: give me protein stability index for each item below, same order please.
1. GRSSMGTGLSGGKRPSQEEDTQSI [CRY1]
2. EMGGSEGIVESIQIMKEGKATASE [NETO1]

Out:
5.51
5.58
